- STUDY SYSTEM: GST-RipK1(1-375) (Homo sapiens)
- Construct: GST-RipK1 Preparation: His.GST.TEV.RIPK1 1-375; His (N); TEV cleavage site (N)
- Sequence (Q13546 1-375): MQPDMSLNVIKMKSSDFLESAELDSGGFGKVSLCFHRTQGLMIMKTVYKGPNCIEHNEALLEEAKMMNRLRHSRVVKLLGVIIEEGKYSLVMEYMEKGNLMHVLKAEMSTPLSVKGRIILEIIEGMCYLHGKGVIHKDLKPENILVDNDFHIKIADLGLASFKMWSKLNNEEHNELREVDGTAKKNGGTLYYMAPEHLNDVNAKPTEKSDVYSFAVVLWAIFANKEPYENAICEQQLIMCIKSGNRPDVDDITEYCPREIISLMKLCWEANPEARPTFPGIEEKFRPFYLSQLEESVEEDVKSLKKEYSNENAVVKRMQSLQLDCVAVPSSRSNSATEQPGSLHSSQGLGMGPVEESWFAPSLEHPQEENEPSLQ
- RUN DESCRIPTION: Fluorescent polarization based binding assay at the ATP binding pocket of RIP1
- DETAILS: FP competition with fluorescently labeled ATP competitive ligand 5 nM; GST-RipK1(1-375) 10 nM; mean of minimum 2 experiments
REPORTED PROPERTY: log10 of IC50 (log10 of the value in µM)

1) O=C(N[C@H]1CSc2cccn2NC1=O)c1nnc(Cc2ccccc2)[nH]1 | -1.60
2) O=C(NC1CCc2sccc2NC1=O)c1nnc(Cc2ccccc2)[nH]1 (stereo not shown) | -0.60
3) Cc1cn(C)c2c1NC(=O)C(NC(=O)c1nnc(Cc3ccccc3)[nH]1)CC2 (stereo not shown) | -0.20
4) CN1C(=O)[C@@H](NC(=O)c2nnc(Cc3ccccc3)[nH]2)CSc2cccn21 | -2.00
5) O=C(NC1CCc2oc3c(c2NC1=O)CCCC3)c1nnc(Cc2ccccc2)[nH]1 (stereo not shown) | -0.10
6) Cc1nsc2c1N(C)C(=O)[C@@H](NC(=O)c1nnc(Cc3ccccc3)[nH]1)CN2 | -1.70
7) Cc1cc2c(s1)CCC(NC(=O)c1nnc(Cc3ccccc3)[nH]1)C(=O)N2 (stereo not shown) | -1.10
8) O=C(NC1CCc2[nH]c3ccccc3c2NC1=O)c1nnc(Cc2ccccc2)[nH]1 (stereo not shown) | -1.40
9) Cc1sc(C)c2c1CCC(NC(=O)c1nnc(Cc3ccccc3)[nH]1)C(=O)N2 (stereo not shown) | -1.00
10) Cn1ccc2c1CCC(NC(=O)c1nnc(Cc3ccccc3)[nH]1)C(=O)N2 (stereo not shown) | -0.10
